target: Gag-Pol polyprotein (Human immunodeficiency virus type 1 group M subtype B (isolate HXB2)) (UniProt P04585); experiment: RNase H inhibition, HIV 1 Gag Pol polyprotein, FRET biochemical assay, screening (AID 372); settings: HIV-1 RT RNase H, FRET RNA/DNA substrate fluorescence; at 10 µM; hits give high values
Out of some 100,000 compounds screened, about 770 (0.77%) were called active. Only a selection was taken, and actives are over-represented in it overall.
ENDPOINT NAME: inhibition (%)
Express the result in % but write the number alone.

Exam item: Bench note: what inhibition did CN(C(=O)c1ccc(Cl)c([N+](=O)[O-])c1)c1ccccc1 show?
Marked response: 17

Exam item: Bench note: what inhibition did CCOc1ccc(/C=N/n2c(-c3ccc(OC)cc3)n[nH]c2=S)cc1OC show?
Marked response: 12

Exam item: Bench note: what inhibition did COc1ccc(/C=C/C(=O)N2c3ccc(C)cc3-c3c(ssc3=S)C2(C)C)cc1OC show?
Marked response: 57

Exam item: Bench note: what inhibition did CC(=O)N(c1ccccc1)C1CC(C)Nc2ccccc21 (configuration not stated) show?
Marked response: 1

Exam item: Bench note: what inhibition did Cc1cccc(N2C(=O)NC(=O)/C(=C\c3ccc(Oc4ccc([N+](=O)[O-])cn4)cc3)C2=O)c1 show?
Marked response: 13

Exam item: Bench note: what inhibition did O=c1c(C=NCC2CCCO2)c(C(F)(F)F)[nH]n1-c1nc2ccccc2s1 (configuration not stated) show?
Marked response: 0

Exam item: Bench note: what inhibition did COC(=O)C1=C(C(=O)OC)SC(=C2C(=S)C(C)(C)N(C(=O)/C=C/c3ccc(OC)c(OC)c3)c3ccc(C)cc32)S1 show?
Marked response: 40

Exam item: Bench note: what inhibition did COc1cc(Br)cc2c1OC1(C=C2)c2ccccc2-c2ccccc2N1C (configuration not stated) show?
Marked response: 50

Exam item: Bench note: what inhibition did O=C(c1c(Cl)cccc1Cl)N1CCN(c2ccccc2)CC1 show?
Marked response: 6

Exam item: Bench note: what inhibition did O=Cc1ccc(OCc2ccc([N+](=O)[O-])cc2)cc1 show?
Marked response: 16

Exam item: Bench note: what inhibition did CCc1ccc(OCC(=O)Nc2ccc3c(c2)C(=O)c2ccccc2C3=O)cc1 show?
Marked response: 27

Exam item: Bench note: what inhibition did O=C(c1c(Cl)cccc1Cl)N1CCN(c2ccc(Cl)cc2)CC1 show?
Marked response: 9

###

molecular target: Gag-Pol polyprotein (Human immunodeficiency virus type 1 group M subtype B (isolate HXB2)) (UniProt P04585); assay: RNase H inhibition, HIV 1 Gag Pol polyprotein, FRET biochemical assay, screening (AID 372); details: HIV-1 RT RNase H, FRET RNA/DNA substrate fluorescence; at 10 µM; hits give high values
Screen size: about 100,000 compounds; about 770 (0.77%) were called active. Many of the other results were omitted from the sample, so actives are more common in it than they were.
inhibition vs 6%: at or above is true (1), below is false (0).

Exam item: Determine whether this compound has inhibition no lower than 6%: CCOC(=O)C1=C(O)/C(=C/c2ccc(Br)cc2)SC1=Nc1ccccc1
Marked response: false (0)

Exam item: Determine whether this compound has inhibition no lower than 6%: COc1cc(/C=N\NC(=O)C2COc3cc4ccccc4cc3O2)ccc1OCc1ccccc1 (stereo not given)
Marked response: true (1)

Exam item: Determine whether this compound has inhibition no lower than 6%: CC(C)c1ccc(/C=C/C(=O)NC(=S)Nc2ccc(S(=O)(=O)N=C(N)N)cc2)cc1
Marked response: true (1)

Exam item: Determine whether this compound has inhibition no lower than 6%: O=C(/C=C/c1ccc2c(c1)OCO2)NCc1ccc(Cl)cc1Cl
Marked response: true (1)

Exam item: Determine whether this compound has inhibition no lower than 6%: Cc1ccc(-c2ccccc2)n1-c1ccccc1C(=O)O
Marked response: true (1)

Exam item: Determine whether this compound has inhibition no lower than 6%: COc1cc(-c2nc(-c3ccccc3)c(-c3cc([N+](=O)[O-])ccc3C)[nH]2)cc(OC)c1OC
Marked response: true (1)

Exam item: Determine whether this compound has inhibition no lower than 6%: O=C(Nc1nc(-c2ccc([N+](=O)[O-])cc2)cs1)c1ccc(Cl)cc1
Marked response: true (1)

Exam item: Determine whether this compound has inhibition no lower than 6%: CC(C)COc1ccc(C(=O)Nc2ccc(-c3nc4ncccc4o3)cc2)cc1
Marked response: true (1)

Exam item: Determine whether this compound has inhibition no lower than 6%: O=C(NN1CCOCC1)c1ccc(Br)cc1
Marked response: false (0)

Exam item: Determine whether this compound has inhibition no lower than 6%: CCOc1ccc(-n2sc3c(c2=S)-c2cc(C)ccc2N(Cc2ccccc2)C3(C)C)cc1
Marked response: true (1)

Exam item: Determine whether this compound has inhibition no lower than 6%: Cc1ccc(F)cc1Nc1nnc(-c2cc3c(ccc4ccccc43)oc2=O)s1
Marked response: false (0)

Exam item: Determine whether this compound has inhibition no lower than 6%: COc1ccc(/C=C/C(=O)Oc2ccc3c(c2)C(C)=CC(C)(C)N3)cc1
Marked response: true (1)

Exam item: Determine whether this compound has inhibition no lower than 6%: c1ccc(-c2onc3ccc(Oc4ccc5noc(-c6ccccc6)c5c4)cc23)cc1
Marked response: true (1)

Exam item: Determine whether this compound has inhibition no lower than 6%: COc1ccc(/C=N/NC(=O)CN2CCSCC2)c(C)c1C
Marked response: true (1)

Exam item: Determine whether this compound has inhibition no lower than 6%: O=C(CN1CCSCC1)N/N=C/c1ccc(-c2ccccc2)cc1
Marked response: true (1)

Exam item: Determine whether this compound has inhibition no lower than 6%: CCOc1ccc(C(=O)Nc2ccc([N+](=O)[O-])cc2OC)cc1Cl
Marked response: true (1)

Exam item: Determine whether this compound has inhibition no lower than 6%: COc1ccc(S(=O)(=O)N(CCc2ccccc2)CC(=O)NC2CCCCC2)cc1
Marked response: false (0)

Exam item: Determine whether this compound has inhibition no lower than 6%: CC(C)NC(=O)C12CC3(C)CC(C)(CC(C)(C3)C1)C2
Marked response: false (0)

Exam item: Determine whether this compound has inhibition no lower than 6%: COc1ccc(C2NC(=O)NC(C)=C2C(=O)OCC(Cl)(Cl)Cl)cc1OC (stereo not given)
Marked response: false (0)

Exam item: Determine whether this compound has inhibition no lower than 6%: COc1cc(OC)c(OC)cc1CN1CCN(Cc2ccccn2)CC1
Marked response: false (0)

Exam item: Determine whether this compound has inhibition no lower than 6%: CCOC(=O)c1ccc(-c2ccc(/C=N/O)o2)cc1
Marked response: false (0)

Exam item: Determine whether this compound has inhibition no lower than 6%: CCOc1ccccc1OCCOc1ccc(C)cc1C(C)(C)C
Marked response: true (1)

Exam item: Determine whether this compound has inhibition no lower than 6%: Cc1cc2nn(-c3ccccc3)nc2cc1NC(=O)/C=C/c1ccccc1
Marked response: true (1)

Exam item: Determine whether this compound has inhibition no lower than 6%: CC(C)(C)c1ccc(S(=O)(=O)N=C2C=CC(=O)C=C2)cc1
Marked response: true (1)

Exam item: Determine whether this compound has inhibition no lower than 6%: COC(=O)c1ccc(/C=C2\N=C(c3ccc(F)cc3)OC2=O)cc1
Marked response: false (0)

Exam item: Determine whether this compound has inhibition no lower than 6%: C=CCN1C(=O)/C(=C\c2ccc(OCc3ccccc3C)c(OC)c2)SC1=S
Marked response: true (1)

Exam item: Determine whether this compound has inhibition no lower than 6%: COc1ccc(NC(=NCCc2ccccc2)SC2CC(=O)N(c3ccc(F)cc3)C2=O)cc1 (stereo not given)
Marked response: true (1)

Exam item: Determine whether this compound has inhibition no lower than 6%: Cc1ccc(-n2nc3cc(C)c(NC(=O)c4cc(Cl)ccc4Cl)cc3n2)cc1
Marked response: false (0)

Exam item: Determine whether this compound has inhibition no lower than 6%: CCOc1ccc(C(=O)NC(=S)Nc2ccc([N+](=O)[O-])cc2OC)cc1Cl
Marked response: true (1)
